Target: CMV protease (Human cytomegalovirus)
Sequence (P16753 1-256): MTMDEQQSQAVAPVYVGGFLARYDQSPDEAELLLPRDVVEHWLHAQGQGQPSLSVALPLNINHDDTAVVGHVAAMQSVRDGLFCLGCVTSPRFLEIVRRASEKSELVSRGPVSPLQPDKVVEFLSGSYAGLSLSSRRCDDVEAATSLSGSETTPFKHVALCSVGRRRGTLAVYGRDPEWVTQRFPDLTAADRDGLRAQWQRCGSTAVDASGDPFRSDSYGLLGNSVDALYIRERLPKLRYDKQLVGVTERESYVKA
Experiment: yeast growth selection assay: RLY07 cells co-expressing Trp1(194)-M substrate and CMV protease
Observation Type: EC50 (µM)
Entry rule: numbers only, all in µM.

For the compound `CN(Cc1ccc([N+](=O)[O-])cc1)C(=O)N1C(=O)C[C@@H]1CSc1nnnn1C` , the measured EC50 on CMV protease (Human cytomegalovirus) was 31

Data origin, for the record: patent US20090029369A1
